# Test system: SW-620 colon
# methodSummary: NCI tumour cell line growth inhibition, 48 h
quantityMeasured: GI50

smilesString: CN(C)c1ccc(N=C2C=CC(=O)c3ccccc32)cc1
targetOfAssay: SW-620 colon
result: 1.68 µM
//
smilesString: Cc1nccc2c3ccc(OCc4cn(-c5ccc(Cl)cc5)nn4)cc3n(CC(C)C)c12
targetOfAssay: SW-620 colon
result: 3.33 µM
//
smilesString: CCn1ccc(NS(=O)(=O)c2ccc(N)cc2)nc1=O
targetOfAssay: SW-620 colon
result: > 100 µM
//
smilesString: COc1cc2c(cc1C)NC(=O)/C2=C\c1c[nH]c2ccccc12
targetOfAssay: SW-620 colon
result: 20.3 µM
//
smilesString: Fc1ccc(Nc2nc3ccccc3c3occc23)cc1
targetOfAssay: SW-620 colon
result: 17 µM
//
smilesString: C/C(=N/N=C(N)N)c1ccc(NC(=O)Nc2ccc(/C(C)=N/N=C(N)N)cc2)cc1
targetOfAssay: SW-620 colon
result: 48.8 µM

====

# System: NCI-H460 lung
# methodSummary: NCI tumour cell line growth inhibition, 48 h
quantityMeasured: TGI

smilesString: CC[C@@]1(CCC(=O)NCCc2c[nH]c3ccccc23)CCC(=O)N2CCc3c([nH]c4ccccc34)[C@H]21
result: > 100 µM
//
smilesString: CCOC(=O)C(CCc1ncnc2c1ncn2Cc1ccccc1)(CCc1ncnc2c1ncn2Cc1ccccc1)C(=O)OCC
result: > 100 µM
//
smilesString: COc1ccc2c(c1)C(=O)c1c-2c(Nc2cccc(C(C)=O)c2)nc2ccccc12
result: > 100 µM

====

# Tested on: MDA-MB-231 breast
# methodSummary: NCI tumour cell line growth inhibition, 48 h; in the data active means GI50 below about 0.43 µM; inactive means the rest
Outcomes: 1 for active, 0 for inactive

smilesString: CC1(C)N=C(N)N=C(N)N1c1cccc(Br)c1
answerLabel: 0
--
smilesString: [CH3][Sn]([CH3])([CH3])[O][N+](=O)[O-]
answerLabel: 0
--
smilesString: C=CCc1c(O)c(C(=O)/C=C/c2ccccc2)c(OC)c2ccoc12
answerLabel: 0
--
smilesString: CN(C)CCOC(=O)Nc1nc2ccc(Sc3ccccc3)cc2[nH]1
answerLabel: 0
--
smilesString: COc1ccc(N(C)c2nc(Cl)nc3cnn(C)c23)cc1
answerLabel: 1
--
smilesString: COC(=O)[C@]12CC[C@@H](C)[C@H](C)[C@@H]1C1=CC[C@@H]3[C@@]4(C)C(C=O)=C[C@@](C)(COC(=O)/C=C/c5ccccc5)[C@@H]4[C@H](O)C[C@@]3(C)[C@]1(C)CC2
answerLabel: 0
--
smilesString: Nc1ncnc2c1ccn2[C@@H]1O[C@H]([C@H](O)c2ccc(Cl)c(F)c2)[C@@H](O)[C@H]1O
answerLabel: 0
--
smilesString: O=C(/C=C/OC(=O)c1cccc(Cl)c1)c1ccc(Cl)cc1
answerLabel: 0
--
smilesString: COCCn1cc(-c2csc(-c3c[nH]c4ccc(Br)cc34)n2)c2cccnc21
answerLabel: 0

====

# Tested on: SF-268 CNS
# methodSummary: NCI tumour cell line growth inhibition, 48 h
quantityMeasured: TGI

compound: CC1(C)N=C(N)N=C(N)N1c1cccc(Br)c1
result: > 100 µM
--
compound: CCc1cccc(C)c1NC(=S)NC(=O)c1ccccc1C(=O)NC(=S)Nc1c(C)cccc1CC
result: > 100 µM
--
compound: CC(C)C1N2CCCCC2[C@@H]2c3[nH]c4ccccc4c3CCN12 (stereo partly drawn)
result: > 100 µM
--
compound: Cc1nccc2c3ccc(OCc4cn(-c5ccc(Cl)cc5)nn4)cc3n(CC(C)C)c12
result: > 33.3 µM
--
compound: CC1=C2C3OC(=O)C(C)C3CCC2(C)C=CC1=Nc1ccccc1 (stereo not drawn)
result: > 100 µM
--
compound: C1CN2CCNCCN(CCN1)CC2
result: > 100 µM
--
compound: CCOC(=O)C1(Br)S(=O)(=O)OCCOS1(=O)=O
result: > 100 µM
--
compound: Cc1csc(NNC(=O)Nc2ccccc2)n1
result: > 100 µM
--
compound: COc1cccc(Nc2nccc(-c3cnn4ncccc34)n2)c1
result: 1.42 µM
--
compound: CN1CCN(Cc2cc(NC(=O)c3cccc(C#Cc4cccc5[nH]nc(N)c45)c3)cc(C(F)(F)F)c2)CC1
result: 3.15 µM
--
compound: CCOC(=O)C(=O)NC12CC3CC(CC(C3)C1)C2
result: > 100 µM
--
compound: COC(=O)C1=NN2c3ccccc3CN([C@@H](C)c3ccccc3)C(=O)[C@@H]2[C@H]1c1ccccc1
result: > 100 µM
--
compound: CCCN1CCC(c2ccc(Nc3nc(Nc4cc(F)ccc4C(N)=O)c4cc[nH]c4n3)c(OC)c2)CC1
result: 7.8 µM
--
compound: O=C(O)CCC(C(=O)O)N1C(=O)C2C3CCC(C3)C2C1=O (stereo not drawn)
result: > 100 µM
--
compound: O=C(/C=C/OC(=O)c1cccc(Cl)c1)c1ccc(Cl)cc1
result: > 100 µM
--
compound: O=P(O)(CN1CCN(CP(=O)(O)c2ccccc2)CCN(CP(=O)(O)c2ccccc2)CC1)c1ccccc1
result: > 100 µM
--
compound: COC1CC(O[C@H]2CC[C@@]3(C)[C@@H](CC[C@]4(O)[C@@H]3CC[C@]3(C)[C@@H](C(C)=O)[C@H](OC(=O)CC(C)C)[C@@H](OC(=O)c5ccccc5)[C@@]34O)C2)OC(C)C1OC1CC(OC)C(OC2OC(C)C(O)C(OC)C2O)C(C)O1 (stereo partly drawn)
result: > 25 µM
--
compound: O=[N+]([O-])c1cccc(N=Nc2c(O)ccc3ccccc23)c1
result: > 100 µM
--
compound: COc1ccc(OC)c(/C=C/c2nc(SCc3ccccc3)n(-c3ccc(Cl)cc3)n2)c1
result: > 100 µM
--
compound: CCCN(CCC)C1=Nc2ccccc2-n2cnnc2C1
result: > 100 µM
--
compound: O=c1c2cc(I)ccc2nc(-c2cccs2)n1/N=C/c1ccccc1
result: > 100 µM
--
compound: c1ccc(N/N=C2\NN=C(c3ccccc3)CS2)cc1
result: 19.8 µM
--
compound: CCCCCC[C@H](C)NC(=O)c1ccc(Nc2nc3ccccc3c3occc23)cc1
result: > 100 µM
--
compound: O=[N+]([O-])C(=C/c1cccs1)/C(=C\c1cccs1)[N+](=O)[O-]
result: 10.4 µM
--
compound: CCN(CC)CCn1c2ccccc2c(=O)c2c(OC)ccc(OC)c21
result: > 100 µM
--
compound: CC(C)CCCC(C)[C@H]1CC[C@H]2N=C(NCc3ccccc3)CCC[C@]12C (stereo partly drawn)
result: 8.92 µM
--
compound: COC1C(O)C(C)OC(OC2CCC3(C)C(CCC4C3C(O)CC3(C)C(C5=CC(=O)OC5)CCC43O)C2)C1O (stereo not drawn)
result: 0.532 µM
--
compound: CN(C)CCOC(=O)Nc1nc2ccc(Sc3ccccc3)cc2[nH]1
result: 25.4 µM
--
compound: COc1cc(/C=C2/C(=O)N(C(=O)OCc3ccccc3)C(Cc3cc(OC)c(OC)c(C)c3OC)C(=O)N2Cc2ccccc2)c(OC)c(C)c1OC (stereo not drawn)
result: > 100 µM
--
compound: C1C[OH+]CC[OH+]CCNCC[OH+]CC[OH+]CCN1.Cl.[Cl-].[Pt+4]
result: > 100 µM
--
compound: C/C(=N/N=C(N)N)c1ccc(NC(=O)Nc2ccc(/C(C)=N/N=C(N)N)cc2)cc1
result: > 71.2 µM
--
compound: COc1cc(/C=N/NC2=NCCCCN2)ccc1O
result: > 100 µM
--
compound: Cn1c(N=P(c2ccccc2)(c2ccccc2)c2ccccc2)c([N+](=O)[O-])c(=O)n(C)c1=O
result: > 100 µM
